# measurement protocol: Blood, brain and hypothalamus distribution after single intragastric dose
# Format: in vivo, Wistar rats
# reported conditions: both sexes, Wistar, rat, blood, oral; rats, toludesvenlafaxine 8 mg/kg intragastric, 12 h; read-out: Blood concentration
quantity kind: concentration at 12 h (ng/mL)

| compound | observed value |
| --- | --- |
| CN(C)CC(c1ccc(O)cc1)C1(O)CCCCC1 (stereo not shown) [ODV, O-desmethylvenlafaxine] | 2.84 |

###

# measurement protocol: Blood, brain and hypothalamus distribution after single intragastric dose
# Type: in vivo, Wistar rats
# reported conditions: both sexes, Wistar, rat, hypothalamus, oral; rats, toludesvenlafaxine 8 mg/kg intragastric, 12 h; read-out: Hypothalamus concentration

| molecule | result unit | concentration at 12 h |
| --- | --- | --- |
| CN(C)CC(c1ccc(O)cc1)C1(O)CCCCC1 (stereo not shown) | ng/g | 7.22 |

###

# measurement protocol: Blood, brain and hypothalamus distribution after single intragastric dose
# Type: in vivo, Wistar rats
# reported conditions: both sexes, Wistar, rat, blood, oral; rats, toludesvenlafaxine 8 mg/kg intragastric, 15 min row (footnote: detected at 20 min)

| compound | result unit | concentration at 20 min |
| --- | --- | --- |
| CN(C)CC(c1ccc(O)cc1)C1(O)CCCCC1 (stereo not shown) | ng/mL | 90.9 |

###

# measurement protocol: Blood, brain and hypothalamus distribution after single intragastric dose
# Assay type: in vivo, Wistar rats
# reported conditions: both sexes, Wistar, rat, brain, oral; rats, toludesvenlafaxine 8 mg/kg intragastric, 15 min; read-out: Brain concentration

| compound | concentration at 15 min (ng/g) |
| --- | --- |
| CN(C)CC(c1ccc(O)cc1)C1(O)CCCCC1 (stereo not shown) [ODV, O-desmethylvenlafaxine] | 13.8 |

Values from paper PMC8476831
